Consider the following compounds; for each one, report its Weight Change (Day 12).
# Tested on: B16 murine melanoma
# TEST_METHOD_NOTES: In vivo B16 murine melanoma tumor model
# Set-up: species or system B6D2F1 mice
# CONDITION_DESCRIPTION: 100 mg/kg/i.p, qd × 5

Look at this compound and give its reported Weight Change (Day 12). COC(=O)Nc1nc2ccc(C(=O)OCC(C)CC(C)(C)C)cc2[nH]1 (stereo not shown)
+9.8%

Look at this compound and give its reported Weight Change (Day 12). "COC(=O)Nc1nc2ccc(C(=O)OCCCCCl)cc2[nH]1"
+12.9%

Look at this compound and give its reported Weight Change (Day 12). "C=CCCOC(=O)c1ccc2nc(NC(=O)OC)[nH]c2c1"
+8.9%

Look at this compound and give its reported Weight Change (Day 12). CCC(C)COC(=O)c1ccc2nc(NC(=O)OC)[nH]c2c1 (stereo not shown)
+10.8%
